System: 280 human cancer cell lines
RUN DESCRIPTION: OncoPanel cell proliferation assay (10-day)
Type: cell-based
COND: Homo sapiens, A 172, A172, CNS - Glioma; read-out: Cell Count IC50
Documented pIC50 across a set of compounds
Worth noting: pIC50 values are minus log10 of concentrations stated in mol/L.

Completed entries (count: 2):
CC(C)=CCC[C@@H]1C(O)Oc2c(C)cc(O)c3c2[C@H]1CC[C@H]3C (stereo partly drawn); 5.04
CC(C)=CCC[C@H](C)[C@@H]1CC[C@@H](C)c2c1cc(C)c(O)c2O [Compound 4, 7,8-dihydroxyserrulat-14-ene]; 5.09

Consider the record given below.
Incoming: pIC50 for CC(C)=CCC[C@H](CO)[C@@H]1CC[C@@H](C)c2c1cc(C)c(O)c2O [Compound 1, 7,8,18-trihydroxyserrulat-14-ene] ?
Outgoing: 5.94

* * *

Test system: 280 human cancer cell lines
RUN DESCRIPTION: OncoPanel cell proliferation assay (10-day)
Format: cell-based
COND: Homo sapiens, SK-MES-1, SKMES1, Lung - NSCLC; read-out: Cell Count IC50
EXPERIMENTAL READOUT: pIC50
Worth noting: pIC50 values are minus log10 of concentrations stated in mol/L.

CC(C)=CCC[C@H](CO)[C@@H]1CC[C@@H](C)c2c1cc(C)c(O)c2O [Compound 1, 7,8,18-trihydroxyserrulat-14-ene]; 5.97

Incoming: // lookup pIC50 | system=280 human cancer cell lines | key= CC(C)=CCC[C@@H]1C(O)Oc2c(C)cc(O)c3c2[C@H]1CC[C@H]3C (stereo partly drawn)
Outgoing: 5.11

Incoming: // lookup pIC50 | system=280 human cancer cell lines | key= CC(C)=CCC[C@H](C)[C@@H]1CC[C@@H](C)c2c1cc(C)c(O)c2O [Compound 4, 7,8-dihydroxyserrulat-14-ene]
Outgoing: 4.94

* * *

Test system: 280 human cancer cell lines
RUN DESCRIPTION: OncoPanel cell proliferation assay (10-day)
Assay type: cell-based
COND: Homo sapiens, DMS-114, DMS114, Lung - SCLC; read-out: Cell Count IC50
EXPERIMENTAL READOUT: IC50 (µM)
// return numeric value only (unit: µM, not printed)

CC(C)=CCC[C@H](C)[C@@H]1CC[C@@H](C)c2c1cc(C)c(O)c2O [Compound 4, 7,8-dihydroxyserrulat-14-ene]; 11.6
CC(C)=CCC[C@H](CO)[C@@H]1CC[C@@H](C)c2c1cc(C)c(O)c2O [Compound 1, 7,8,18-trihydroxyserrulat-14-ene]; 2.77

Consider the record given below.
Incoming: // lookup IC50 | system=280 human cancer cell lines | key= CC(C)=CCC[C@@H]1C(O)Oc2c(C)cc(O)c3c2[C@H]1CC[C@H]3C (stereo partly drawn)
Outgoing: 13.8

* * *

TARGET OR TEST SYSTEM: UniProt:P29375
Sequence (P29375 whole entry): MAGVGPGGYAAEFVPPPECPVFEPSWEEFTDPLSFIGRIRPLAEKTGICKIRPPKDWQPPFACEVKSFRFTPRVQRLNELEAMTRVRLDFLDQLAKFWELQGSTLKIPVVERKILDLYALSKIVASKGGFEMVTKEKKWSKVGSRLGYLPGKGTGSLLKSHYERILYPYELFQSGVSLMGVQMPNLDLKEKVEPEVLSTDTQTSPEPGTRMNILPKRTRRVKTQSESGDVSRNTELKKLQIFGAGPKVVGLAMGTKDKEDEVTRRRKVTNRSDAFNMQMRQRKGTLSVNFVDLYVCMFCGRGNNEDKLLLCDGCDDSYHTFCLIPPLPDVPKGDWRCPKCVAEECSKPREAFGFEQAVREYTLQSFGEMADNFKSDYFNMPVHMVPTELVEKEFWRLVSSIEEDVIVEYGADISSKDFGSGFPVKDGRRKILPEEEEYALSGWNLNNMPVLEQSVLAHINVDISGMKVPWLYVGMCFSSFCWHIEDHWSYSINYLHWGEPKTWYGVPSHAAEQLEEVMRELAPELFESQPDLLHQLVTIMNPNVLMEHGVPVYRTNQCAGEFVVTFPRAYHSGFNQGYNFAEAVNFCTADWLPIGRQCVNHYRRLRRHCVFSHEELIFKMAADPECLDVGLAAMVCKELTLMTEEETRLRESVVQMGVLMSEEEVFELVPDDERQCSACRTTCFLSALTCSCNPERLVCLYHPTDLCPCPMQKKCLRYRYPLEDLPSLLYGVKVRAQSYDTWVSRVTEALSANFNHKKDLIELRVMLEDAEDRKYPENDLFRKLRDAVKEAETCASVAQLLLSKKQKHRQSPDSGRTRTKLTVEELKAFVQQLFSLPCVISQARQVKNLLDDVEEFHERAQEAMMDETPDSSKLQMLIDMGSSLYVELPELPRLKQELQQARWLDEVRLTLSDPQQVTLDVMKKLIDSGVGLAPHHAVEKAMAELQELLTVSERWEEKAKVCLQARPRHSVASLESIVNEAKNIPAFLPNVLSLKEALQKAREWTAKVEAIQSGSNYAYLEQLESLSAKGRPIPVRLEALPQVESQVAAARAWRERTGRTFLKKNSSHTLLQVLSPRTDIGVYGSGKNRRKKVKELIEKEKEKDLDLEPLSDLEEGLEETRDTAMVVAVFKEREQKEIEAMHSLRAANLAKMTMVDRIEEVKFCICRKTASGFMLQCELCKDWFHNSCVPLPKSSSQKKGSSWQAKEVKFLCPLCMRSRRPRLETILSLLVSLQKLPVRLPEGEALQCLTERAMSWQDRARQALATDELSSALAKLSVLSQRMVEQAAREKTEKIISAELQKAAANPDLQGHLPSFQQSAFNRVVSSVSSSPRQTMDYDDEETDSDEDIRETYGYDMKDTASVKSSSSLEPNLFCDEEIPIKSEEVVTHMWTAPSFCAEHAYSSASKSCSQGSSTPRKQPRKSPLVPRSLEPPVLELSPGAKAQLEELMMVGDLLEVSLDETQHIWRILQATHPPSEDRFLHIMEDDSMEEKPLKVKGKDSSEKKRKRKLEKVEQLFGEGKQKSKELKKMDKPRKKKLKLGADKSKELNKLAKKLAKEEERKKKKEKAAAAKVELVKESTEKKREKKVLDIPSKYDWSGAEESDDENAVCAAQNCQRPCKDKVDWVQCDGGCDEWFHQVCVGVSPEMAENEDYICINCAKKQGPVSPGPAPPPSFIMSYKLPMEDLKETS
RUN DESCRIPTION: Epigenetic enzyme assay, Demethylases (KDMs)
Assay type: biochemical
COND: Table 11, inhibition/concentration-response curve; read-out: IC50
EXPERIMENTAL READOUT: pIC50
Worth noting: pIC50 values are minus log10 of concentrations stated in mol/L.

Incoming: // lookup pIC50 | system=UniProt:P29375 | key= CC(C)=CCC[C@H](CO)[C@@H]1CC[C@@H](C)c2c1cc(C)c(O)c2O [Compound 1, 7,8,18-trihydroxyserrulat-14-ene]
Outgoing: 5.02
